Ok so here's the combined literature set: pIC50 for PIK3CD (Human) (UniProt O00329).
pIC50: −log10 of the molar value.

Below, 6 compounds whose answers are already recorded.
CNc1cccc2cc([C@H](C)NC(=O)c3c(N)nn4cccnc34)n(-c3ccccc3)c(=O)c12 ... < 5.00
Cc1ccccc1-n1c(Cn2nc(Cl)c3c(N)ncnc32)nc2scc(C)c2c1=O ... > 7.00
C[C@@H]1CN(C2CN(c3cnc4ccc(-c5ccc6nc(N)[nH]c6c5)nc4c3)C2)CCN1C ... < 5.00
C[C@H](Nc1ncnc2[nH]cnc12)c1cc2cccc(Cl)c2c(SCC[N+]2([O-])CCOCC2)n1 ... > 7.00
Cc1cccc2cc(Cn3nc(C(C)(C)O)c4c(N)ncnc43)n(-c3ccccc3)c(=O)c12 ... < 5.00
Cc1cccc2cc([C@H](C)Nc3nc(N)ncc3C(F)(F)F)n(-c3ccccc3)c(=O)c12 ... > 7.00

Answer for every listed entry: what is its pIC50? The entries follow.
1. Cc1cccc2cc([C@H](C)Nc3ncnc4[nH]cc(C(N)=O)c34)n(-c3ccccc3)c(=O)c12
2. C[C@H](NC(=O)c1c(N)nn2cccnc12)c1cc2cccc(-c3ccc(=O)n(C)c3)c2c(=O)n1-c1ccccc1
3. CCn1c(Cn2nc(-c3cccc(O)c3)c3c(N)ncnc32)cc2cccc(C)c2c1=O
4. CN1CCN(c2cnc3ccc(-c4ccc5sc(N)nc5c4)cc3n2)CC1
5. COc1ccc(-c2cnc(N)c(C(=O)N[C@@H](C)c3cc4cccc(Cl)c4c(=O)n3-c3ccccc3)n2)cc1NS(C)(=O)=O

["> 7.00", "6.00 to 7.00", "> 7.00", "< 5.00", "5.00 to 6.00"]
